Cited source: patent US20240409617A1

# Test Target: B.1.351 Spike (SARS-CoV2)
Property Measured: Response
# output: bare number, no unit

Example cases with answers are listed next.
Value lookup for Response; key = Ab_17 scFv-Fc (scFv, V domains shown) VH: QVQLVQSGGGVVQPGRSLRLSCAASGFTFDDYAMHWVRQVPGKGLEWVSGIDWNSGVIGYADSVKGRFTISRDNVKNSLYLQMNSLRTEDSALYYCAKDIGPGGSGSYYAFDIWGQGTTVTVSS VL: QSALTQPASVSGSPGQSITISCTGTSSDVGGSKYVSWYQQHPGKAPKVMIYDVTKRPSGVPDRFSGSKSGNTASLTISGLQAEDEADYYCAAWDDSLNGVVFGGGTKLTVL
0.199

Item Ab_19 scFv-Fc (scFv, V domains shown) VH: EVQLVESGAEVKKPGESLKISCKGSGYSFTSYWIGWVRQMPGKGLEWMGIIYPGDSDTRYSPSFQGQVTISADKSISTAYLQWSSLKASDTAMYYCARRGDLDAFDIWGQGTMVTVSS VL: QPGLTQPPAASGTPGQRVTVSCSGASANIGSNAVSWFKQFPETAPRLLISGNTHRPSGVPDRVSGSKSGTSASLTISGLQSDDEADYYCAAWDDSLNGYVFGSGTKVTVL has what recorded Response?
0.258

Here's the next entry for you.
What does the record list as Response for S1-RBD-R3-T1-F5 (Ab2-7) scFv-Fc (scFv, V domains shown) VH: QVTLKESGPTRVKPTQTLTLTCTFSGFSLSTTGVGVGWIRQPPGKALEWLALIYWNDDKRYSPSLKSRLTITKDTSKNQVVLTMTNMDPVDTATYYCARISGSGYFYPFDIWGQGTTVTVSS VL: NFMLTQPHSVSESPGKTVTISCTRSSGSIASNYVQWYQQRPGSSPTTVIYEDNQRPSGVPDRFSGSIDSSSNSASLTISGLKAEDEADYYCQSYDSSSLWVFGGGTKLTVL ?
0.13
